Parameter EC50 (read off the curve): see the listing below.
# assay system: T1, mouse DLL4 overexpressed on cells (mouse, UniProt Q9JI71 27-686)
# T1 construct: whole, on cells; also called CHO-mDLL4; CHO-mDII4
# T1 sequence (Q9JI71 27-686): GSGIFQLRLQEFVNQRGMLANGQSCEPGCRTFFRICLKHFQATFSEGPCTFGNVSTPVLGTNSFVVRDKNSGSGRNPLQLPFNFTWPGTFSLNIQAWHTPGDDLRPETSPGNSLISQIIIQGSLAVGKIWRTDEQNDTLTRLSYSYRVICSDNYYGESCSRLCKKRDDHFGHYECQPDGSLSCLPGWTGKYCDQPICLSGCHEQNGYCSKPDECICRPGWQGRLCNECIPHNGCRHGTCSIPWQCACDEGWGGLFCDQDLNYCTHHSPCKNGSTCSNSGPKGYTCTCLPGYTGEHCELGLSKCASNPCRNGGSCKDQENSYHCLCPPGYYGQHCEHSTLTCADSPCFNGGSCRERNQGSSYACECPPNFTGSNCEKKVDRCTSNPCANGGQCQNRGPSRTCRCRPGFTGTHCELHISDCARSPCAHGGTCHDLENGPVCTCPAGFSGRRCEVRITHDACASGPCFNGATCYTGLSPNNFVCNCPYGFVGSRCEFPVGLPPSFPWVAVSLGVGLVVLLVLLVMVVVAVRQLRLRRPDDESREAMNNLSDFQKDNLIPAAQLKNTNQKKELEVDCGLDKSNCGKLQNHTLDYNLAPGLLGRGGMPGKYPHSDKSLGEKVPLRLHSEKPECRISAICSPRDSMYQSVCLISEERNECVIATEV
# protocol: FACS titration on HEK293-mDLL4 cells, MCF

// worked examples, EC50 (read off the curve) included
[[record]]
binder = "DLLBII96C03 (VHH, also called 96C3) VHH: EVQLVESGGGLVQPGGSLRLSCAASGFTFGNYDMSWVRQAPGKGPEWVSAINSGGGDTYYADSVKGRFTISRDNAKNTLYLQMNSLKPEDTAVYYCATPRGWGPTGPHEYGYWGQGTQVTVSS"
val = "~20 nM"

[[record]]
binder = "DLLBII101G08 (VHH, also called 101G8; DLLBII101G8) VHH: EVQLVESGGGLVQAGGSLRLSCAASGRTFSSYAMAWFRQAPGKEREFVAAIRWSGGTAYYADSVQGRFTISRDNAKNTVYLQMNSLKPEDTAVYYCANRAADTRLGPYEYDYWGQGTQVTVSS"
val = "~40 nM"

[[record]]
binder = "DLLBII62C11 (VHH) VHH: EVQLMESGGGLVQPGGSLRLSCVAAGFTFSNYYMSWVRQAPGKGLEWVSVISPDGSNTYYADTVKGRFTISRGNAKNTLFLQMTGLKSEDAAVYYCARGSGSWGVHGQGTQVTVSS"
val = "~20 nM"


Exam item: Using the record for DLLBII115A05 (VHH, also called 115A5; DLLBII115A5) VHH: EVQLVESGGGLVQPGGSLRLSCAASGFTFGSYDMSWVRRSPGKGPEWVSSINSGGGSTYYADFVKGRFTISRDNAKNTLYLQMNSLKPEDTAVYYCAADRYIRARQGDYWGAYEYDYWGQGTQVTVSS , report its EC50 (read off the curve).
Marked response: ~30 nM
